Test system: MALME-3M melanoma
Assay: NCI-60 one-dose screen, 48 h (100 = growth as untreated, 0 = no growth, -100 = all killed)
Conditions: 10 µM unless noted
The panel holds about 83,000 compounds, 20% with a hit somewhere; the sample as a whole holds those more often.
assay-metric: growth (%)

{"item-smiles": "CNC(=O)c1ccc(Nc2ncc(C(F)(F)F)c(NCc3nccnc3N(C)S(C)(=O)=O)n2)cc1", "output-unit": "%", "recorded-result": -1.87}
{"item-smiles": "N#Cc1c(NC(=O)c2ccco2)[n+]([O-])c2cc(F)c(F)cc2[n+]1[O-]", "output-unit": "%", "recorded-result": 116}
{"item-smiles": "CN1CCN(c2ccc(C(=O)Nc3n[nH]c4ccc(Cc5cc(F)cc(F)c5)cc34)c(NC3CCOCC3)c2)CC1", "output-unit": "%", "recorded-result": -83.4}
{"item-smiles": "CN1[C@@H]2CC[C@H]1/C(=C\\c1ccccc1)C1=C2[C@@H](c2ccccc2)C(C#N)=C(N)O1", "output-unit": "%", "recorded-result": 88.8}

---

Tested on: NCI-H460 lung
Test: NCI-60 one-dose screen, 48 h (100 = growth as untreated, 0 = no growth, -100 = all killed)
Conditions: 10 µM unless noted
This is part of a sample that, as a whole, favours compounds with a hit. Of some 83,000 tested, about 20% had one in any assay.
Cut-off 30% on growth, inclusive. At or above means true (1); below means false (0).

{"compound": "COc1cccc(Nc2ncnn3ccc(CN4CC[C@@H](N)[C@H](O)C4)c23)c1", "class-name": "true (1)"}
{"compound": "O=C(NOC[C@H](O)CO)c1ccc(F)c(F)c1Nc1ccc(I)cc1F", "class-name": "true (1)"}
{"compound": "CCCCn1c(C)nc2cc(Nc3nc(N4CCCCC4)nc4nc[nH]c34)ccc21", "class-name": "true (1)"}
{"compound": "COc1cc2cc(NCc3ccc(F)cc3)nc(C)c2cc1OC", "class-name": "false (0)"}
{"compound": "CCOC(=O)Sc1ncnc2nc[nH]c12", "class-name": "true (1)"}
{"compound": "COc1cc2c(c(OC)c1)C1c3ccccc3NC(=O)N1CC2 (stereo unspecified)", "class-name": "false (0)"}

---

Tested on: A549/ATCC NSCLC
Test: NCI-60 one-dose screen, 48 h
Conditions: 10 µM unless noted
Compounds without any hit were thinned out: in the full panel of roughly 83,000, 20% have a hit. Activity calls are given as the source filed them. Rule for the calls: active = growth percent below 10; inactive = the rest.
Outcomes: true (1) = active, false (0) = inactive

{"compound": "Cc1ccc(-c2nc3ccc(Cl)cn3c2NC2CCCCC2)o1", "class-name": "false (0)"}
{"compound": "NC1(c2ccc(-c3nc4ccn5c(=O)[nH]nc5c4cc3-c3ccccc3)cc2)CCC1", "class-name": "false (0)"}
{"compound": "Nc1nc(Nc2ccccc2)c(C=Nc2ccccc2)c(=O)[nH]1", "class-name": "false (0)"}
{"compound": "COc1ccc2c(c1)cn1c3ccc(O)cc3nc(N)c21", "class-name": "false (0)"}
{"compound": "O=C(Cc1ccc(/C=C/C(=O)c2ncc[nH]2)cc1)Nc1ccc(Br)cc1", "class-name": "false (0)"}
{"compound": "COc1ccc2c(CCC(c3ccccc3)c3ccccc3)c3[n+](cc2c1OC)CCc1cc2c(cc1-3)OCO2", "class-name": "false (0)"}
{"compound": "COc1cc(NCCN(CC(C)C)CC(C)C)c2ncc(C)cc2c1", "class-name": "false (0)"}
{"compound": "CC/C(=C(\\c1ccc(OCCN2CCCCCCC2)cc1)c1ccc(OC(=O)C2CCCCC2)cc1)c1ccc(Cl)cc1", "class-name": "false (0)"}
{"compound": "CC(C)[C@@H]1CC[C@@H]2[C@@H]1[C@H](OC(=O)/C=C/c1ccccc1)[C@]1(C(C)C)C[C@@H](OC(=O)CO)[C@@]2(C)O1", "class-name": "false (0)"}
{"compound": "CCn1cc(-c2ccnc3[nH]c(-c4cccc(CN(C)C)c4)cc23)c(-c2ccc(NC(=O)N(C)C)cc2)n1", "class-name": "false (0)"}
{"compound": "Nc1nc(N)c2cc(CNc3ccc(C(=O)NC(CC(=O)O)C(=O)O)cc3)ccc2n1 (stereo not given)", "class-name": "true (1)"}
{"compound": "CN1CCN(c2ccc(C(=O)Nc3n[nH]c4ccc(Cc5cc(F)cc(F)c5)cc34)c(NC3CCOCC3)c2)CC1", "class-name": "true (1)"}
{"compound": "COCc1c(-c2ccc(NC(=O)Nc3cc(C(F)(F)F)ccc3F)c(F)c2)c2c(N)ncnn2c1CN1CCOCC1", "class-name": "true (1)"}
{"compound": "CCc1ccc(/C=C/c2ccc(O)c3ncccc23)[n+](C)c1", "class-name": "false (0)"}
{"compound": "Cn1cnc2c(F)c(Nc3ccc(Br)cc3F)c(C(=O)NOCCO)cc21", "class-name": "false (0)"}
{"compound": "C=CC(=O)N1CCC(Oc2cc3c(Nc4ccc(Cl)c(Cl)c4F)ncnc3cc2OC)CC1", "class-name": "false (0)"}
{"compound": "Cc1nc(N)sc1-c1ccnc(Nc2ccc(N3CCOCC3)cc2)n1", "class-name": "false (0)"}
{"compound": "COCCN1CCN(Cc2ccc(-c3n[nH]c4c3C(=O)c3c(NC(=O)NN5CCOCC5)cccc3-4)cc2)CC1", "class-name": "true (1)"}
{"compound": "CC(C)(C)c1nc(-c2cccc(NS(=O)(=O)c3c(F)cccc3F)c2F)c(-c2ccnc(N)n2)s1", "class-name": "false (0)"}
{"compound": "O=C(O)c1ccc2c(c1)nc(Nc1cccc(Cl)c1)c1ccncc12", "class-name": "false (0)"}
{"compound": "CCCCCCC1(/C=N/NC(N)=O)NC(=O)NC1=O (stereo not given)", "class-name": "false (0)"}
{"compound": "Cc1ccc(F)c(NC(=O)Nc2ccc(-c3cccc4[nH]nc(N)c34)cc2)c1", "class-name": "true (1)"}
{"compound": "NS(=O)(=O)c1ccc(CCN2C(=O)/C(=C\\c3ccc(Cl)cc3)C=C2c2ccc3ccccc3c2)cc1", "class-name": "false (0)"}
{"compound": "O=c1[nH]ccc2c(S(=O)(=O)N3CCCNCC3)cccc12", "class-name": "false (0)"}
{"compound": "CN1CCN(CCCOc2cccc3nc(Nc4ccc(Cl)c(C(F)(F)F)c4)ccc23)CC1", "class-name": "true (1)"}
{"compound": "C/C(=C(/c1ccc(Cl)cc1)c1ccc(OCCN2CCCCC2)cc1)c1ccccc1", "class-name": "false (0)"}
{"compound": "Cc1nc2ccc(-n3ncc(C(=O)c4cc5ccccc5[nH]4)c3N)cc2[nH]1", "class-name": "false (0)"}
{"compound": "N#Cc1c(-c2ccc(Cl)cc2)csc1NC(=O)Nc1cccc(C(F)(F)F)c1", "class-name": "false (0)"}
{"compound": "CC1(C)NC(=O)c2[nH]c3c(Cl)c(Cl)ccc3c2C1C#N (stereo not given)", "class-name": "false (0)"}
{"compound": "CC1CCC(n2cnc3c(Cl)ncnc32)O1 (stereo not given)", "class-name": "false (0)"}
